Test: Tariquidar plasma concentration (LC/MS)
Format: in vivo
Experimental Conditions: Sprague-Dawley, rat, intravenous, 15 mg/kg, 2 hours after tariquidar 15 mg/kg i.v., saline group, mean ± s.d.
Measured Endpoint: concentration at 2 h (ng/mL)
Numbers only, in ng/mL.

Inquiry: Fill blank: measured concentration at 2 h of the compound COc1cc2c(cc1OC)CN(CCc1ccc(NC(=O)c3cc(OC)c(OC)cc3NC(=O)c3cnc4ccccc4c3)cc1)CC2 [tariquidar, Tariquidar] is ____.
Reply text: 1800

###

Test: Tariquidar plasma concentration (LC/MS)
Assay type: in vivo
Experimental Conditions: Sprague-Dawley, rat, intravenous, 15 mg/kg, 2 hours after tariquidar 15 mg/kg i.v., kainate group, mean ± s.d.
Measured Endpoint: concentration at 2 h

Inquiry: Fill blank: measured concentration at 2 h of the compound COc1cc2c(cc1OC)CN(CCc1ccc(NC(=O)c3cc(OC)c(OC)cc3NC(=O)c3cnc4ccccc4c3)cc1)CC2 is ____.
Reply text: 1600 ng/mL
